assayedSystem: T1, hAMY3R (human, UniProt P30988)
T1 sequence 1: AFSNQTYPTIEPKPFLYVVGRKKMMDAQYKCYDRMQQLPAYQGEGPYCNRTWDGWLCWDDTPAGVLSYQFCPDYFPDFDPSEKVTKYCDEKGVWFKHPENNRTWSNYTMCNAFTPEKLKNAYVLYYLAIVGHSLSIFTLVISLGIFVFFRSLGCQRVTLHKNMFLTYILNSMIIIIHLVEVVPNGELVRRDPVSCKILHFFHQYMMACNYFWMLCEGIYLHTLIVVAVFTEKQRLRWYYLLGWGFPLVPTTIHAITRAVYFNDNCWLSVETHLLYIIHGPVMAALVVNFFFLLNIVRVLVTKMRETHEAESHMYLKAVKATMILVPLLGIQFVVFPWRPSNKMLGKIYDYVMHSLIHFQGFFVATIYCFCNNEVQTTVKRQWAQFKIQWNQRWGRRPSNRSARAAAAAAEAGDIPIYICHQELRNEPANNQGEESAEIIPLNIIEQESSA
T1 sequence 2: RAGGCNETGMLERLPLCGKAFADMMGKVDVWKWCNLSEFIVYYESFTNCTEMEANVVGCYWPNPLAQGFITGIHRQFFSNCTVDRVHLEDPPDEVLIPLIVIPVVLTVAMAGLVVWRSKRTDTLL
assayInfo: cell-based or functional assay
Bridge positions count the residues as written; N and C are the ends. Square brackets hold non-standard residues; d marks the D form. Ends that are not written are not given here. Hyp = O=C(O)[C@@H]1C[C@@H](O)CN1; Cit = NC(=O)NCCC[C@H](N)C(=O)O
Strictly below 0.01 nM in hAMY3R EC50 (cAMP): Met. Otherwise: Not met.

(Q) Please indicate whether the reported hAMY3R EC50 (cAMP) of GCRFGTCTVQRLAHQIYQFTDKDKDNVAPRSNVGPQGY [SEQ ID NO: 374] is strictly below 0.01 nM.
(A) Not met

(Q) Please indicate whether the reported hAMY3R EC50 (cAMP) of GCRFGTCTVQ[Cit]LAHQIYQFTDKDKDNVAPRTNVSPQG[Hyp]-NH2 (disulfide 2-7 (inferred); ends not checked) [SEQ ID NO: 283] is strictly below 0.01 nM.
(A) Not met

(Q) Please indicate whether the reported hAMY3R EC50 (cAMP) of GCRFGTCTVQRLAHQIYQFTDKDKDNVAPRTKVSPQG[Hyp]-NH2 (disulfide 2-7 (inferred); ends not checked) [SEQ ID NO: 132] is strictly below 0.01 nM.
(A) Not met

Numbers sourced from patent US12139520B2.
